# Tested on: NOMO1
# ASSAY_METHOD_TEXT: cell viability relative to DMSO control; higher = less cytotoxic
# EXPERIMENTAL_SETUP: HPLM + 10% dialyzed FBS; 48 h; 0.569 µM
# cell viability listing for each entry below
METRIC_NAME: cell viability (%)

# MOLECULE, MEASURED_RESULT
data = [
    ("COc1ccc(CC2SC(=O)NC2=O)cc1C(=O)NCc1ccc(C(F)(F)F)cc1 (stereo not given)", 99.3),
    ("c1cc(N[C@@H]2CCNC2)nc(-c2cnc3ccc(-c4cn[nH]c4)cn23)c1", 127),
    ("O=C(O)CCCc1ccc(N(CCCl)CCCl)cc1", 109),
    ("OC[C@H]1O[C@H](C[C@@H]1O)N2\\C=C(\\I)C(=O)NC2=O", 114),
    ("CON(C)C(=O)N1\\N=C(/S[C@]1(CCCN)C2=CC=CC=C2)C3=CC(=CC=C3F)F", 30.8),
]
